Molecular target: T1, mouse MASP-2 D4-6 recombinant protein (mouse, UniProt Q91WP0 298-685)
T1 construct: Made 'similarly' to the human protein (N-terminal his6 tag)
T1 sequence (Q91WP0 other isoform, or with tags, fused parts or gaps limits assumed): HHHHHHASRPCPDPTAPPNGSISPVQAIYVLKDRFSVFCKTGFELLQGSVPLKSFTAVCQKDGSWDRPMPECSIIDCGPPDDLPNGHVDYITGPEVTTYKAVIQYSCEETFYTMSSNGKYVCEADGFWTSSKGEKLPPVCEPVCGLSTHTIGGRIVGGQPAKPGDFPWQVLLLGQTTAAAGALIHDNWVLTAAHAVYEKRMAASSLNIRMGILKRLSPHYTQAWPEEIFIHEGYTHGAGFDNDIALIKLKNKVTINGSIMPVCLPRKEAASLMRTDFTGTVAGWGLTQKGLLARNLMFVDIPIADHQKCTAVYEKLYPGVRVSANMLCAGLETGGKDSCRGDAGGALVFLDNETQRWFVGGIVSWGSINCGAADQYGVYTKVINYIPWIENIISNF
Assay: SPR Biacore T200, antibody on Protein A chip, antigen as analyte, 1:1 fit
Kd values, listed per item
readoutName: Kd (nM)

[[record]]
binder = "chimeric antibody 25L15 (antibody, V domains shown) VH: KVKLVESGGDLVKPGGSLKISCAASGFTFSNYAMSWIRQTPDKRLEWVATVSSGGPYTYYPDSVKGRFTISRDNAENTLYLQMSSLRSDDTAIYYCARQIYSDYDVTYWGQGTLVTVSA VL: QIVLSQSPAILSASPGETVTMTCRVSSSVSYMYWLQQKPGSSPKPWIYATSNLASGVPARFSGSGSGTSYSLTITRVEAEDAATYYCQQWSFRPWTFGGGTKLEIK"
val = 499

[[record]]
binder = "chimeric antibody 28O14 (antibody, V domains shown) VH: QVQLQQSGTELARPGASVRMSCKASGYTFRSHTMHWVKQRPGQGLEWIGYINPSTGYINYNQKFKDKATLTADKSSSTAYMQLSSLTSEDSAVYYCARSNYSYYYGMDYWGQGTSVTVSS VL: DIVMTQSHKFMSTSVGDRVTITCKASQDVNTAVAWYQQKPGQSPKLLIYSASYRYTGVPDRFTGSGSGTDFTFTISSLQAEDLAVYYCQQHYNIPLTFGAGTKLELK"
val = 767

